Taken from paper PMC6950567.

# method notes: Pharmacokinetics after intravenous injection in beagle dogs
# Assay type: in vivo
# measurement parameters: male, dog, whole blood; beagle dogs, intravenous, 5.0 mg·kg^−1
parameter: Cmax (ng/mL)
# number only, unit ng/mL dropped from output

What value of Cmax has been reported for the following compound? CC(C)=CCCC(C)=CCCC1(C)Oc2c(c(O)cc3c2CN(CCCC(C(=O)O)N2Cc4c(cc(O)c5c4OC(C)(CCC=C(C)CCC=C(C)C)C(O)C5)C2=O)C3=O)CC1O (stereo not shown) 48600

----------
# method notes: Pharmacokinetics after intravenous injection in beagle dogs
# Format: in vivo
# measurement parameters: male, dog, whole blood; beagle dogs, intravenous, 2.5 mg·kg^−1
parameter: half-life (min)
# number only, unit min dropped from output

What value of half-life has been reported for the following compound? CC(C)=CCCC(C)=CCCC1(C)Oc2c(c(O)cc3c2CN(CCCC(C(=O)O)N2Cc4c(cc(O)c5c4OC(C)(CCC=C(C)CCC=C(C)C)C(O)C5)C2=O)C3=O)CC1O (stereo not shown) [2,5-BHPA] 49

----------
# method notes: Pharmacokinetics after intravenous injection in beagle dogs
# Format: in vivo
# measurement parameters: male, dog, whole blood; beagle dogs, intravenous, 2.5 mg·kg^−1
parameter: Cmax (ng/mL)
# number only, unit ng/mL dropped from output

What value of Cmax has been reported for the following molecule? CC(C)=CCCC(C)=CCCC1(C)Oc2c(c(O)cc3c2CN(CCCC(C(=O)O)N2Cc4c(cc(O)c5c4OC(C)(CCC=C(C)CCC=C(C)C)C(O)C5)C2=O)C3=O)CC1O (stereo not shown) 13600

----------
# method notes: Pharmacokinetics after intravenous injection in beagle dogs
# Assay type: in vivo
# measurement parameters: male, dog, whole blood; beagle dogs, intravenous, 5.0 mg·kg^−1
parameter: MRT (min)
# number only, unit min dropped from output

What value of MRT has been reported for the following compound? CC(C)=CCCC(C)=CCCC1(C)Oc2c(c(O)cc3c2CN(CCCC(C(=O)O)N2Cc4c(cc(O)c5c4OC(C)(CCC=C(C)CCC=C(C)C)C(O)C5)C2=O)C3=O)CC1O (stereo not shown) 26.2

----------
# method notes: Caco-2 cells monolayer absorption and bidirectional transport experiment
# Type: in vitro ADME, human
# measurement parameters: human, Caco-2, 0.5 μM, no BSA, 2 h; read-out: Mean Papp AP to BL
parameter: Papp A→B at 2 h, 0.5 µM (×10⁻⁶ cm/s)
# number only, unit ×10⁻⁶ cm/s dropped from output

What value of Papp A→B at 2 h, 0.5 µM has been reported for the following compound? CC(C)=CCCC(C)=CCCC1(C)Oc2c(c(O)cc3c2CN(CCCC(C(=O)O)N2Cc4c(cc(O)c5c4OC(C)(CCC=C(C)CCC=C(C)C)C(O)C5)C2=O)C3=O)CC1O (stereo not shown) 0.493

----------
# method notes: Caco-2 cells monolayer absorption and bidirectional transport experiment
# Type: in vitro ADME, human
# measurement parameters: human, Caco-2, 0.5 μM, no BSA
parameter: efflux ratio at 2 h, 0.5 µM
Respond using a number only.

What value of efflux ratio at 2 h, 0.5 µM has been reported for the following molecule? CC(C)=CCCC(C)=CCCC1(C)Oc2c(c(O)cc3c2CN(CCCC(C(=O)O)N2Cc4c(cc(O)c5c4OC(C)(CCC=C(C)CCC=C(C)C)C(O)C5)C2=O)C3=O)CC1O (stereo not shown) [2,5-BHPA] 1.13

----------
# method notes: Caco-2 cells monolayer absorption and bidirectional transport experiment
# Type: in vitro ADME, human
# measurement parameters: human, Caco-2, 2 µM, 0.1% bull serum albumin added; read-out: Mean Papp BL to AP
parameter: Papp B→A at 2 h, 2 µM (×10⁻⁶ cm/s)
# number only, unit ×10⁻⁶ cm/s dropped from output

What value of Papp B→A at 2 h, 2 µM has been reported for the following compound? C[C@H]1O[C@@H](O[C@H]2[C@@H](O)C[C@H](O[C@H]3[C@@H](O)C[C@H](O[C@H]4CC[C@@]5(C)[C@H](CC[C@@H]6[C@@H]5C[C@@H](O)[C@]5(C)[C@@H](C7=CC(=O)OC7)CC[C@]65O)C4)O[C@@H]3C)O[C@@H]2C)C[C@H](O)[C@@H]1O [Digoxin, digoxin, reference compound] 10.4

----------
# method notes: Caco-2 cells monolayer absorption and bidirectional transport experiment
# Assay type: in vitro ADME, human
# measurement parameters: human, Caco-2, 5 μM, no BSA
parameter: efflux ratio at 2 h, 5 µM
Respond using a number only.

What value of efflux ratio at 2 h, 5 µM has been reported for the following compound? CC(C)=CCCC(C)=CCCC1(C)Oc2c(c(O)cc3c2CN(CCCC(C(=O)O)N2Cc4c(cc(O)c5c4OC(C)(CCC=C(C)CCC=C(C)C)C(O)C5)C2=O)C3=O)CC1O (stereo not shown) 1.06

----------
# method notes: Caco-2 cells monolayer absorption and bidirectional transport experiment
# Format: in vitro ADME, human
# measurement parameters: human, Caco-2, 5 µM, 0.1% bull serum albumin added; read-out: Mean Papp AP to BL
parameter: Papp A→B at 2 h, 5 µM (×10⁻⁶ cm/s)
# number only, unit ×10⁻⁶ cm/s dropped from output

What value of Papp A→B at 2 h, 5 µM has been reported for the following compound? CC(C)=CCCC(C)=CCCC1(C)Oc2c(c(O)cc3c2CN(CCCC(C(=O)O)N2Cc4c(cc(O)c5c4OC(C)(CCC=C(C)CCC=C(C)C)C(O)C5)C2=O)C3=O)CC1O (stereo not shown) 0.097

----------
# method notes: Caco-2 cells monolayer absorption and bidirectional transport experiment
# Type: in vitro ADME, human
# measurement parameters: human, Caco-2, text summary, no BSA, over the concentrations tested; read-out: Papp range
# Procedure: The samples included three control drugs (fenoterol, propranolol, and digoxin) and 2,5-BHPA. […] The total recovery was calculated by collecting the amount of lead compound absorbed on the membrane surface or accumulated in the cell. Finally, the concentration of each sample was calculated as the ratio of the peak area between the compound and the inner target through mass spectrum analysis (API 4000). […]
parameter: Papp at 2 h

What value of Papp at 2 h has been reported for the following compound? CC(C)=CCCC(C)=CCCC1(C)Oc2c(c(O)cc3c2CN(CCCC(C(=O)O)N2Cc4c(cc(O)c5c4OC(C)(CCC=C(C)CCC=C(C)C)C(O)C5)C2=O)C3=O)CC1O (stereo not shown) [2,5-BHPA] 0.04 to 0.49 ×10⁻⁶ cm/s

----------
# method notes: Caco-2 cells monolayer absorption and bidirectional transport experiment
# Assay type: in vitro ADME, human
# measurement parameters: human, Caco-2, text summary, no BSA, over the concentrations tested; read-out: total recovery rate AP→BL
parameter: recovery at 2 h

What value of recovery at 2 h has been reported for the following compound? CC(C)=CCCC(C)=CCCC1(C)Oc2c(c(O)cc3c2CN(CCCC(C(=O)O)N2Cc4c(cc(O)c5c4OC(C)(CCC=C(C)CCC=C(C)C)C(O)C5)C2=O)C3=O)CC1O (stereo not shown) 35.8 to 52.4%

----------
# method notes: Pharmacokinetics after intravenous injection in beagle dogs
# Assay type: in vivo
# measurement parameters: male, dog, whole blood; beagle dogs, intravenous, 2.5 mg·kg^−1
# Procedure: Male beagle dogs (SPF, 10.2–10.8 kg, aged 2 years) were provided by the Xingang Experimental Animal Co., Ltd. (Shanghai, China). All dogs were fed with standard laboratory food and water ad libitum at least 3 days prior to the experiments in an environmentally controlled room (12 h dark-light cycle; ~25 °C, 60% humidity, GB14925-2001). All protocols and procedures were approved by the Institutional Animal Care and Use Committee of Shanghai Ocean University (Approval number: 13-0012). […]
parameter: clearance
State the result as a value with its unit after it.

What value of clearance has been reported for the following molecule? CC(C)=CCCC(C)=CCCC1(C)Oc2c(c(O)cc3c2CN(CCCC(C(=O)O)N2Cc4c(cc(O)c5c4OC(C)(CCC=C(C)CCC=C(C)C)C(O)C5)C2=O)C3=O)CC1O (stereo not shown) 9.2 mL/min/kg

----------
# method notes: Pharmacokinetics after intravenous injection in beagle dogs
# Type: in vivo
# measurement parameters: male, dog, whole blood; beagle dogs, intravenous, 2.5 mg·kg^−1
parameter: MRT (min)
# number only, unit min dropped from output

What value of MRT has been reported for the following compound? CC(C)=CCCC(C)=CCCC1(C)Oc2c(c(O)cc3c2CN(CCCC(C(=O)O)N2Cc4c(cc(O)c5c4OC(C)(CCC=C(C)CCC=C(C)C)C(O)C5)C2=O)C3=O)CC1O (stereo not shown) 28.7

----------
# method notes: Caco-2 cells monolayer absorption and bidirectional transport experiment
# Type: in vitro ADME, human
# measurement parameters: human, Caco-2, text summary of Table 2, 0.1% BSA added; read-out: total recovery rate
parameter: recovery at 2 h

What value of recovery at 2 h has been reported for the following compound? CC(C)=CCCC(C)=CCCC1(C)Oc2c(c(O)cc3c2CN(CCCC(C(=O)O)N2Cc4c(cc(O)c5c4OC(C)(CCC=C(C)CCC=C(C)C)C(O)C5)C2=O)C3=O)CC1O (stereo not shown) > 90%
